# target_entity: PBP3 from Pseudomonas aeruginosa (PAO1) (Pseudomonas aeruginosa)
# Sequence (G3XD46 whole entry): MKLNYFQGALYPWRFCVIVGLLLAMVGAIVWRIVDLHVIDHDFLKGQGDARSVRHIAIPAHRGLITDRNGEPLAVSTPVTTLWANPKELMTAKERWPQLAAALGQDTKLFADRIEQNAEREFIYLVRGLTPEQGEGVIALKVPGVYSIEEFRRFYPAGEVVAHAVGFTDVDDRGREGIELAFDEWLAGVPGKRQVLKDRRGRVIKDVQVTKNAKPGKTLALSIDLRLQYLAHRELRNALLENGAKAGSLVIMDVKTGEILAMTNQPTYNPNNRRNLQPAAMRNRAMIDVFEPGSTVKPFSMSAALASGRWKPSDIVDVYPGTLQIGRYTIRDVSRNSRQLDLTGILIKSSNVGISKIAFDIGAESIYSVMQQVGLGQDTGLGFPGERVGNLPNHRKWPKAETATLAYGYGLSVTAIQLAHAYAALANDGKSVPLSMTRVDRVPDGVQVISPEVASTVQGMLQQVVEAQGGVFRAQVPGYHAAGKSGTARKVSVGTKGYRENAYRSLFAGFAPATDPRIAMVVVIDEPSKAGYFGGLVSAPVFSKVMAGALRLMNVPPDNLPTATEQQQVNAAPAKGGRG
# measurement_protocol: Bocillin-FL fluorescence polarization competition binding, P. aeruginosa PBP3
# stated_conditions: Binding affinity to P. aeruginosa PBP3; fluorescence polarization competition binding assay using Bocillin-FL; read-out: P. aeruginosa PBP3 Potency
pIC50: −log10 of the molar value.
pIC50 by entry:

{"molecule": "O=C(O)c1cccc2c1OB(O)[C@@H](NC(=O)C(NC(=O)N1CCN(Cc3ccc(O)c(O)c3Cl)C(=O)C1=O)c1ccc(P(=O)(O)O)cc1)C2 (stereo partly drawn)", "pIC50": "> 5.00"}
{"molecule": "O=C(O)c1c(F)ccc2c1OB(O)[C@@H](NC(=O)[C@H](NC(=O)N1CCN(C3CCN(C(=O)c4cc(O)c(F)c(O)c4)CC3)C1=O)c1cc(F)c(O)c(O)c1Cl)C2 (single isomer, unassigned)", "pIC50": "> 5.00"}
{"molecule": "O=C(O)c1c(F)ccc2c1OB(O)[C@@H](NC(=O)[C@@H](NC(=O)N1CCN(C3CCN(C(=O)c4ccc(O)cc4)CC3)C1=O)c1cc(F)c(O)c(O)c1Cl)C2 (single isomer, unassigned)", "pIC50": "4.30 to 5.00"}

---

# key: entry, value: MIC
# Test system: P. aeruginosa CDC-0090
# measurement_protocol: microbe, parasite or virus in culture
# Format: cell-based
# stated_conditions: Pseudomonas aeruginosa, CDC0090, read-out: Minimum inhibitory concentration, P. aeruginosa CDC-0090

{"compound": "O=C(O)c1c(F)ccc2c1OB(O)[C@@H](NC(=O)[C@H](NC(=O)N1CCN(C3CCN(Cc4cncc(O)c4)CC3)C1=O)c1cc(F)c(O)c(O)c1Cl)C2 (single isomer, unassigned)", "MIC": "< 1 µg/mL"}
{"compound": "O=C(O)c1c(F)ccc2c1OB(O)[C@@H](NC(=O)[C@H](NC(=O)N1CCN(C3CCN(C(=O)Nc4cccc(O)c4Cl)CC3)C1=O)c1cc(F)c(O)c(O)c1Cl)C2", "MIC": "< 1 µg/mL"}
{"compound": "O=C(O)c1c(F)ccc2c1OB(O)[C@@H](NC(=O)[C@H](NC(=O)N1CCN(C3CCN(C(=O)c4ccncc4)CC3)C1=O)c1cc(F)c(O)c(O)c1Cl)C2", "MIC": "< 1 µg/mL"}
{"compound": "O=C(O)c1c(F)ccc2c1OB(O)[C@@H](NC(=O)C(NC(=O)N1CCN(S(=O)(=O)c3ccc(O)c(O)c3Cl)C1=O)c1ccc(P(=O)(O)O)cc1)C2 (some centres unmarked)", "MIC": "< 1 µg/mL"}
{"compound": "O=C(O)c1c(F)ccc2c1OB(O)[C@@H](NC(=O)[C@H](NC(=O)N1CCN(C3CCN(C(=O)c4cc(O)cc(F)c4)CC3)C1=O)c1cc(F)c(O)c(O)c1Cl)C2 (single isomer, unassigned)", "MIC": "< 1 µg/mL"}
{"compound": "O=C(NCCCN1CCN(C(=O)N[C@@H](C(=O)N[C@H]2Cc3ccc(F)c(C(=O)O)c3OB2O)c2cc(F)c(O)c(O)c2Cl)C(=O)C1=O)c1ccnc(F)c1F", "MIC": "< 1 µg/mL"}
{"compound": "O=C(NCCS(=O)(=O)N1CCN(C(=O)N[C@H](C(=O)N[C@H]2Cc3ccc(F)c(C(=O)O)c3OB2O)c2cc(F)c(O)c(O)c2Cl)C1=O)c1nccs1", "MIC": "32 to 64 µg/mL"}
{"compound": "O=C(O)c1c(F)ccc2c1OB(O)[C@@H](NC(=O)C(NC(=O)N1CCN(Cc3ccc(O)c(O)c3Cl)C(=O)C1=O)c1ccc(P(=O)(O)O)cc1)C2 (some centres unmarked)", "MIC": "2 to 4 µg/mL"}
